Target: Androgen Receptor (AR) in the LNCaP prostate carcinoma cell line (Homo sapiens, UniProt P10275, T878A)
Construct: cell based immuno-fluorescence assay using the LNCaP prostate epithelial cell line; host or cells: LNCaP clone FGC
Sequence (P10275 1-920 T878A): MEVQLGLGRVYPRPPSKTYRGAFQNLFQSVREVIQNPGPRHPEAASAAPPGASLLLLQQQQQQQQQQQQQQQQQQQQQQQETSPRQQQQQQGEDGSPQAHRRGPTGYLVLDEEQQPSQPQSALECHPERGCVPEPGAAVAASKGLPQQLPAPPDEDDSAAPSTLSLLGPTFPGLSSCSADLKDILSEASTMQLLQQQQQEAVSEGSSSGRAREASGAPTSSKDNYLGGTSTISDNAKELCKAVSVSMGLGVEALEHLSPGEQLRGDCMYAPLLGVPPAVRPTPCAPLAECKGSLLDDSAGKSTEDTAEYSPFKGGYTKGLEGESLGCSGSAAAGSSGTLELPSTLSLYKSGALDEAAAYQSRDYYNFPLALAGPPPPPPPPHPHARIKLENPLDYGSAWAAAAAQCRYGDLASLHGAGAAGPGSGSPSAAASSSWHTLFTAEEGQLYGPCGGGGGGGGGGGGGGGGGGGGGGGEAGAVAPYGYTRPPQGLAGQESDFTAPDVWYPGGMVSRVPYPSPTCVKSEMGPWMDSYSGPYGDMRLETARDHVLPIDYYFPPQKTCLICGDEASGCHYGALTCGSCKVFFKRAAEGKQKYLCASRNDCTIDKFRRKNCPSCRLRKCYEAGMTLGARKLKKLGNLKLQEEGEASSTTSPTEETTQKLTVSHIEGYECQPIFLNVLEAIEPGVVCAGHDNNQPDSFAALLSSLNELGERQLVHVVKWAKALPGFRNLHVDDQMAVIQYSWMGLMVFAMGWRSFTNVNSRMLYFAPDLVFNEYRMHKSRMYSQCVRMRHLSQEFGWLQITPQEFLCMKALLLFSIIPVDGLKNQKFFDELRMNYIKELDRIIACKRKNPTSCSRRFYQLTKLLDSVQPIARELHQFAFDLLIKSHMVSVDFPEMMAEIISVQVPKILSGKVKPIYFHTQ
Experiment: LNCaP Androgen Receptor Down-Regulation Cell Assay (immunofluorescence end point)
Type: cell-based
Details: LNCaP cells, compound incubation 20-22 hours, concentration giving 50% reduction of the AR signal
Measurement name: IC50 (µM)

compound="CCCCC(=O)N1CCN(CCOc2ccc(C3CCN(C4=Nn5c(nnc5C(F)(F)F)CC4)CC3)cc2)CC1 [Example 25]" measurement_name=IC50 quantitative_readout=0.93
compound="FC(F)(F)c1nnc2n1N=C(N1CC=C(c3c[nH]c4ccccc34)CC1)CC2 [Example 2]" measurement_name=IC50 quantitative_readout=3.2
compound="Fc1cccc(CN2CCN(C3=Nn4c(nnc4C(F)(F)F)CC3)CC2)c1F [Example 9]" measurement_name=IC50 quantitative_readout=4.1
compound="O=C1CN(CCOc2ccc(C3CCN(C4=Nn5c(nnc5C(F)(F)F)CC4)CC3)cc2)CCN1C1CC1 [Example 47]" measurement_name=IC50 quantitative_readout=1.4
compound="CCCCC(=O)N1CCN(CCCOc2ccc(C3CCN(C4=Nn5c(nnc5C(F)(F)F)CC4)CC3)cc2)CC1 [Example 27]" measurement_name=IC50 quantitative_readout=0.67
compound="CC(=O)N1CCN(CCCOc2ccc(C3CCN(C4=Nn5c(nnc5C(F)(F)F)CC4)CC3)cc2)CC1 [Example 4.1]" measurement_name=IC50 quantitative_readout=1.2
compound="C[C@@H](COc1ccc(C2CCN(C3=Nn4c(nnc4C(F)(F)F)CC3)CC2)cc1)N1CCN(C)C(=O)C1 (single isomer, unassigned) [Example 55]" measurement_name=IC50 quantitative_readout=0.18
